- System: T1, SUDV GP on rVSV particles (Sudan virus (SUDV), UniProt Q66814 33-676)
- T1 sequence: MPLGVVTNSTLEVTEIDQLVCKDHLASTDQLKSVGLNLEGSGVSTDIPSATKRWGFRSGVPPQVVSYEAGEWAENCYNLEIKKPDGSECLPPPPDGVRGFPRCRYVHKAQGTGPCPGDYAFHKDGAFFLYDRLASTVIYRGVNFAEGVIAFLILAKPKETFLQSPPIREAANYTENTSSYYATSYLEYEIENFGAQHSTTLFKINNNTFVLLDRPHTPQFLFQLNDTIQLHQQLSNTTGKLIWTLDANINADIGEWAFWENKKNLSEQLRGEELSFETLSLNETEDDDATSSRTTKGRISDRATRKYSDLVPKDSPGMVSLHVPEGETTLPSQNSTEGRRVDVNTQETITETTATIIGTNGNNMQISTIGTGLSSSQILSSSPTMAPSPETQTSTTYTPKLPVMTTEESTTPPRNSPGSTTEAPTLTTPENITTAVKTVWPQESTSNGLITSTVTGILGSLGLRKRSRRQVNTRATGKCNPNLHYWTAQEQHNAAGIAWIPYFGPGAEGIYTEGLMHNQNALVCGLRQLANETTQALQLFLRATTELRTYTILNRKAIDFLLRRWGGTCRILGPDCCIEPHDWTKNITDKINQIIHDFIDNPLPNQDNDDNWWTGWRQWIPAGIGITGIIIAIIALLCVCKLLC
- Assay: cell-based or functional assay
Measurement Kind: IC50, half-maximal neutralization of viral infectivity (rVSV-GP) (nM)
One number for each entry, in nM.

Look over these answered cases.
PE-87 F109A (antibody, V domains shown) VH: QVQLVQSGVTLVQPGGSLRVSCAASGFTFSSYAMSWVRQAPGKGLEWVSAISGLGGSTYYADSVKGRFTISRDNSKNTLYLQMNSLRAEDTAVYYCAKDHRVWAAGYHADYWGQGALVTVSS VL: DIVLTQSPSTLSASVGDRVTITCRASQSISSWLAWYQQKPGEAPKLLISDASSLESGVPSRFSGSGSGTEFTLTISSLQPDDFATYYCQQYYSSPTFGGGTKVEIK : 2.1
PE-87 H108A (antibody, V domains shown) VH: QVQLVQSGVTLVQPGGSLRVSCAASGFTFSSYAMSWVRQAPGKGLEWVSAISGLGGSTYYADSVKGRFTISRDNSKNTLYLQMNSLRAEDTAVYYCAKDHRVWAAGYAFDYWGQGALVTVSS VL: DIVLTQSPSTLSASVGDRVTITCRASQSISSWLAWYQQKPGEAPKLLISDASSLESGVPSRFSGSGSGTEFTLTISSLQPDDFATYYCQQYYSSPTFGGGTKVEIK : 2.1
PE-87 Y111A (antibody, V domains shown) VH: QVQLVQSGVTLVQPGGSLRVSCAASGFTFSSYAMSWVRQAPGKGLEWVSAISGLGGSTYYADSVKGRFTISRDNSKNTLYLQMNSLRAEDTAVYYCAKDHRVWAAGYHFDAWGQGALVTVSS VL: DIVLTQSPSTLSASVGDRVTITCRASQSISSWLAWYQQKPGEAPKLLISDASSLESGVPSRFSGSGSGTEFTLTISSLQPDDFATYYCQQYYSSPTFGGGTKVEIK : 0.8

IN: Please report IC50, half-maximal neutralization of viral infectivity (rVSV-GP) for the following binder: PE-87 R101A (antibody, V domains shown) VH: QVQLVQSGVTLVQPGGSLRVSCAASGFTFSSYAMSWVRQAPGKGLEWVSAISGLGGSTYYADSVKGRFTISRDNSKNTLYLQMNSLRAEDTAVYYCAKDHAVWAAGYHFDYWGQGALVTVSS VL: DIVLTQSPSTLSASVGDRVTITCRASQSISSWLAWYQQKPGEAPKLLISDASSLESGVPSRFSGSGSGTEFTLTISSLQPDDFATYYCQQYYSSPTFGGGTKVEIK
OUT: 1.5
